# Target desc: enzyme (from seminal vesicles of sheep) (Ovis aries)
# Sequence (P05979 25-600): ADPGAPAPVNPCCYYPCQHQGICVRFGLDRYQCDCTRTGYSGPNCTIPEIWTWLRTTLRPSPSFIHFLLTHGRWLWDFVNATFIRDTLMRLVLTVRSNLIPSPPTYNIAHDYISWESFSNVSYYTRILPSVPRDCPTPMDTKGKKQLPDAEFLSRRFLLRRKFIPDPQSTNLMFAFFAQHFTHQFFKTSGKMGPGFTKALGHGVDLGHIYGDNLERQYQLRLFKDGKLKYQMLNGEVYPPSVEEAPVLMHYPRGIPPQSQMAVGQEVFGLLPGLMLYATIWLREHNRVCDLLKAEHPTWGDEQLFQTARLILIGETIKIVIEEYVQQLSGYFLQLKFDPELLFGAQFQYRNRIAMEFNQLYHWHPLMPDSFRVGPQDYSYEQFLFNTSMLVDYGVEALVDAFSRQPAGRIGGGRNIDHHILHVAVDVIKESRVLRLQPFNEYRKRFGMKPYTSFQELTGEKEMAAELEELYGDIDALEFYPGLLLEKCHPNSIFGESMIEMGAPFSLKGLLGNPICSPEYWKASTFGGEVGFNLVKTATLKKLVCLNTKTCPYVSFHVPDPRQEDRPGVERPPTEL
# Conditions used: Table 2; share of total prostaglandin
Would you mind telling me the reported PGD2 % of each entry?
Hi! Could you send only the number? It should be in %, unit omitted.

input: # value lookup — system enzyme (from seminal vesicles of sheep) (Ovis aries), readout PGD2 %, item Oc1cc(O)c2c(c1)OC(c1ccc(O)c(O)c1)C(O)C2 (stereo not drawn) [Example 58, Catechin]
output: 12

input: # value lookup — system enzyme (from seminal vesicles of sheep) (Ovis aries), readout PGD2 %, item O=C(CCc1ccc(O)cc1)c1c(O)cc(O)cc1O [Example 60, Phloretin]
output: 13

input: # value lookup — system enzyme (from seminal vesicles of sheep) (Ovis aries), readout PGD2 %, item CC1=C(C)C(=O)C(CC[C@](C)(O)CCC[C@H](C)CCC[C@H](C)CCCC(C)C)=C(C)C1=O [Example 51, D-alpha-Tocopheryl-quinone]
output: 15

input: # value lookup — system enzyme (from seminal vesicles of sheep) (Ovis aries), readout PGD2 %, item COC1=C(OC)C(=O)C(C/C=C(\C)CC/C=C(\C)CC/C=C(\C)CC/C=C(\C)CC/C=C(\C)CC/C=C(\C)CC/C=C(\C)CC/C=C(\C)CC/C=C(\C)CCC=C(C)C)=C(C)C1=O [Example 47, Vitamin Q10, reference compound]
output: 14

input: # value lookup — system enzyme (from seminal vesicles of sheep) (Ovis aries), readout PGD2 %, item Oc1cc(O)c2c(c1)O[C@H](c1ccc(O)c(O)c1)[C@H](O)C2 [Example 59, Epicatechin]
output: 12

input: # value lookup — system enzyme (from seminal vesicles of sheep) (Ovis aries), readout PGD2 %, item C[C@@H]1O[C@@H](O[C@H]2[C@H](Oc3cc(O)c4c(c3)O[C@H](c3ccc(O)cc3)CC4=O)O[C@H](CO)[C@@H](O)[C@@H]2O)[C@H](O)[C@H](O)[C@H]1O [Example 54, Naringin]
output: 15

input: # value lookup — system enzyme (from seminal vesicles of sheep) (Ovis aries), readout PGD2 %, item O=c1c(O)c(-c2ccc(O)c(O)c2)oc2cc(O)cc(O)c12 [Example 57, Quercetin]
output: 10

input: # value lookup — system enzyme (from seminal vesicles of sheep) (Ovis aries), readout PGD2 %, item O=C1C[C@@H](c2ccc(O)cc2)Oc2cc(O)cc(O)c21 [Example 55, Naringenin]
output: 20

input: # value lookup — system enzyme (from seminal vesicles of sheep) (Ovis aries), readout PGD2 %, item C[C@@H]1O[C@@H](OC[C@H]2O[C@@H](Oc3c(-c4ccc(O)c(O)c4)oc4cc(O)cc(O)c4c3=O)[C@H](O)[C@@H](O)[C@@H]2O)[C@H](O)[C@H](O)[C@H]1O [Example 52, Rutin]
output: 18

input: # value lookup — system enzyme (from seminal vesicles of sheep) (Ovis aries), readout PGD2 %, item O=C(CCc1ccc(O)cc1)c1c(O)cc(O)cc1O[C@@H]1O[C@H](CO)[C@@H](O)[C@H](O)[C@H]1O [Example 53, Phlorizin]
output: 18

input: # value lookup — system enzyme (from seminal vesicles of sheep) (Ovis aries), readout PGD2 %, item O=c1c(O)c(-c2ccc(O)cc2)oc2cc(O)cc(O)c12 [Example 56, Kaempferol]
output: 13

input: # value lookup — system enzyme (from seminal vesicles of sheep) (Ovis aries), readout PGD2 %, item O=c1c(O)c(-c2ccc(O)cc2O)oc2cc(O)cc(O)c12 [Example 61, Morin]
output: 19
